molecular target: human melanocortin-4 receptor (MC-4R) (Homo sapiens, UniProt P32245); construct: expressed in transfected cells; host or cells: HEK293; assay: Functional assay: agonistic activity, cAMP production in membrane preparations compared with NDP-alpha-MSH, fluorescence polarization; format: biochemical; conditions: cAMP production, membrane preparations from HEK293 cells expressing human MC-4R; read-out: hMC-4R functional assay EC50
Sequence (P32245 whole entry): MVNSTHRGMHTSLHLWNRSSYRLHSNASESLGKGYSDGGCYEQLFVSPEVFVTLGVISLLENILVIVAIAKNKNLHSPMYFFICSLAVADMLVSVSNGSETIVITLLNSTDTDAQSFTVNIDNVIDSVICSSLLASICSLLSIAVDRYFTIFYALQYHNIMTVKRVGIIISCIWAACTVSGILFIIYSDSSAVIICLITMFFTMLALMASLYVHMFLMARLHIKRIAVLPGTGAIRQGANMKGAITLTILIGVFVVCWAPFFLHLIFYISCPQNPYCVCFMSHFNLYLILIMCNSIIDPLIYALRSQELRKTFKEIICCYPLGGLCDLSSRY
pEC50: −log10 of the molar value.

itemSmiles | tgt | pEC50
Cc1ccc(C2CCN(C(=O)[C@@H](Cc3ccc(F)cc3F)NC(=O)N3CCCC3)CC2)c(N2CCN(C)CC2)n1 | human melanocortin-4 receptor (MC-4R) (Homo sapiens, UniProt P32245) | < 6.00
CN1CCC[C@@H]1COc1cccnc1C1CCN(C(=O)[C@@H](Cc2ccc(Cl)cc2Cl)NC(=O)N2CCCC2)CC1 | human melanocortin-4 receptor (MC-4R) (Homo sapiens, UniProt P32245) | 6.00 to 7.00
CC[C@@H](CN(C)C)Oc1cccnc1C1CCN(C(=O)[C@@H](Cc2ccc(Cl)cc2Cl)NC(=O)N2CCCC2)CC1 | human melanocortin-4 receptor (MC-4R) (Homo sapiens, UniProt P32245) | < 6.00
COC[C@@H](CN(C)C)Oc1cccnc1C1CCN(C(=O)[C@@H](Cc2ccc(Cl)cc2Cl)NC(=O)N2CCCC2)CC1 | human melanocortin-4 receptor (MC-4R) (Homo sapiens, UniProt P32245) | 6.00 to 7.00
CC[C@H](COc1cccnc1C1CCN(C(=O)[C@@H](Cc2ccc(Cl)cc2Cl)NC(=O)N2CC[C@H](O)C2)CC1)N(C)C | human melanocortin-4 receptor (MC-4R) (Homo sapiens, UniProt P32245) | ≥ 7.00
COCCN(C)C(=O)N[C@H](Cc1ccc(Cl)cc1Cl)C(=O)N1CCC(c2ncccc2O[C@H]2CCCN(C)C2)CC1 | human melanocortin-4 receptor (MC-4R) (Homo sapiens, UniProt P32245) | ≥ 7.00

Numbers sourced from patent US20100249093A1.
